experiment: Stability in Sprague-Dawley rat liver microsomes assessed as parent compound remaining at 10 uM measured after 30 mins by LC-MS/MS analysis; type: ADME, Microsome; settings: read-out: Stability
recorded.metric: remaining at 0.5 h, 10 µM (%)

>  <record.smiles>
CCc1cc(-c2cnn(C)c2)cc(S(=O)(=O)c2cnc(CN)s2)c1

>  <value.unit>
%

>  <endpoint.value>
82

$$$$

* * *

assay: Inhibition of pig skin-derived LOX using cadaverine hydrochloride as substrate preincubated for 1 hr followed by substrate addition by ROS-Glo assay; parameters: species or system Sus scrofa
IC50 by entry:

>  <record.smiles>
CS(=O)(=O)c1cc(-c2ccccc2)cc(-c2cnc(CN)s2)c1

>  <IC50>
46.5 to 52 µM

$$$$
>  <record.smiles>
Cn1cc(-c2cc(S(C)(=O)=O)cc(S(=O)(=O)c3csc(CN)n3)c2)cn1

>  <IC50>
> 100 µM

$$$$
>  <record.smiles>
CS(=O)(=O)c1cc(-c2ccccc2)cc(S(=O)(=O)c2csc(CN)n2)c1

>  <IC50>
> 100 µM

$$$$
>  <record.smiles>
CS(=O)(=O)c1cc(Sc2cnc(CN)s2)cc(-c2ccccc2)c1

>  <IC50>
1.13 to 1.31 µM

$$$$
>  <record.smiles>
Cn1cc(-c2cc(S(C)(=O)=O)cc(S(=O)(=O)c3cnc(CN)s3)c2)cn1

>  <IC50>
2.65 to 3.42 µM

$$$$

* * *

Entries and their measured remaining at 0.5 h, 10 µM follow.
experiment: Stability in CD1 mouse liver microsomes assessed as parent compound remaining at 10 uM measured after 30 mins by LC-MS/MS analysis; type: ADME, Microsome; details: read-out: Stability

>  <record.smiles>
CS(=O)(=O)c1cc(-c2ccccc2)cc(S(=O)(=O)c2ccc(CN)s2)c1

>  <remaining at 0.5 h, 10 µM, %>
64

$$$$
>  <record.smiles>
CCc1cc(-c2cnn(C)c2)cc(S(=O)(=O)c2cnc(CN)s2)c1

>  <remaining at 0.5 h, 10 µM, %>
76

$$$$

Cited source for all entries: ChEMBL document CHEMBL4402523
